test system: MDA-MB-468 breast; experiment: NCI tumour cell line growth inhibition, 48 h
The following compounds are shown together with reported TGI values.
property: TGI (µM)

INSERT INTO measurements (compound, system, unittag, limitoperator, reportedresult) VALUES
  ('O=[N+]([O-])c1ccc(CI)cc1', 'MDA-MB-468 breast', 'µM', '=', 4.09),
  ('COc1ccccc1Nc1ncc(-c2ccccc2)o1', 'MDA-MB-468 breast', 'µM', '>', 25),
  ('Cn1cc(-c2csc(-c3c[nH]c4ccc(Br)cc34)n2)c2cnccc21', 'MDA-MB-468 breast', 'µM', '=', 3.56),
  ('COc1cc(C2CC(c3cccc(Nc4ccncc4)c3)=NN2c2ccc(Cl)cc2)cc(OC)c1OC (stereo unspecified)', 'MDA-MB-468 breast', 'µM', '=', 3.45),
  ('Nc1c(C(=O)c2ccccc2)cnn1-c1ccc(F)cc1', 'MDA-MB-468 breast', 'µM', '>', 25),
  ('COc1ccc(-c2nnc(N3CCN(C(=O)CN4CCN(c5ccccc5)CC4)CC3)nc2-c2ccc(OC)cc2)cc1', 'MDA-MB-468 breast', 'µM', '>', 100),
  ('Cn1c(Nc2ccc(C(F)(F)F)cc2)nc2cc(Oc3ccnc(-c4ncc(C(F)(F)F)[nH]4)c3)ccc21', 'MDA-MB-468 breast', 'µM', '=', 11.4),
  ('COc1ccc(-c2nsc3c2NC(=O)CC3c2cccc(OC)c2)cc1 (stereo unspecified)', 'MDA-MB-468 breast', 'µM', '=', 3.97),
  ('C#Cc1nc(Nc2cc(C)[nH]n2)c2ccccc2n1', 'MDA-MB-468 breast', 'µM', '=', 0.45),
  ('COc1ccc(C(O)(CCC(C)C)C(CN2CCOCC2)c2ccc(Cl)cc2)cc1 (stereo unspecified)', 'MDA-MB-468 breast', 'µM', '=', 23.4),
  ('NCCc1cc(O)c(O)cc1O', 'MDA-MB-468 breast', 'µM', '=', 97.8),
  ('C=COC(=O)N[C@H]1CCc2cc(OC)c(OC)c(OC)c2-c2ccc(SC)c(=O)cc21', 'MDA-MB-468 breast', 'µM', '>', 100),
  ('COc1ccc(-c2cc(/C=C/C(=O)c3ccc(OC)c(OC)c3)[nH]n2)cc1', 'MDA-MB-468 breast', 'µM', '=', 2.94),
  ('CN(C)C(=S)Sc1ccc([N+](=O)[O-])cc1[N+](=O)[O-]', 'MDA-MB-468 breast', 'µM', '=', 5.78),
  ('O=C(Nc1ccc(OCc2ccccc2)cc1)Nc1ccc(Cl)c(C(F)(F)F)c1', 'MDA-MB-468 breast', 'µM', '=', 4.12),
  ('O=C(NNc1ccccc1)C(=O)NNc1ccccc1', 'MDA-MB-468 breast', 'µM', '>', 100);

* * *

system: MDA-MB-468 breast; test: NCI tumour cell line growth inhibition, 48 h; in the data active means GI50 below about 0.43 µM; inactive means the rest
Possible outcomes: 1 (yes) for active, 0 (no) for inactive

INSERT INTO assay_data (compound, categorylabel) VALUES
  ('COC(=O)c1ccc2c(c1)/C(=C\c1cc(Br)c(O)c(Br)c1)C(=O)N2', '0 (no)'),
  ('Cn1c(=O)c(Oc2ccc(F)cc2)cc2cnc(NC3CCOCC3)nc21', '0 (no)'),
  ('O=[N+]([O-])c1ccc(CI)cc1', '0 (no)'),
  ('NCCc1cc(O)c(O)cc1O', '0 (no)'),
  ('COc1ccccc1Nc1ncc(-c2ccccc2)o1', '0 (no)'),
  ('BrCc1cccc(C[P+](c2ccccc2)(c2ccccc2)c2ccccc2)c1', '0 (no)'),
  ('Nc1ccn(C2OC(CO)C(O)C2O)c(=O)n1 (stereo unspecified)', '0 (no)'),
  ('CC1(C)N=C(N)N=C(N)N1c1ccc(CCCCc2ccc(Cl)c(S(=O)(=O)F)c2)c(Cl)c1', '0 (no)'),
  ('COc1cc(/C=C/C(=O)c2cccc(-n3cc(-c4ccc(Cl)cc4)[nH]c3=O)c2)ccc1O', '0 (no)'),
  ('CS(=O)(=O)Nc1cc(-c2ccc3ncnc(Nc4c(Cl)ccc5c4OCO5)c3c2)cnc1Cl', '1 (yes)'),
  ('Cn1cc(-c2csc(-c3c[nH]c4ccc(Br)cc34)n2)c2cnccc21', '0 (no)');
